target: mouse TLR7 (Mus musculus, UniProt P58681); experiment: Short-term in vivo (STIV) assay: oral dosing, R848 s.c., plasma IL-6; parameters: female BALB/c mice (Jackson Labs, Bar Harbor, Me.) were dosed by oral gavage; tissue Jackson Labs; host or cells: living female BALB/c mice; plasma IL-6 after s.c. R848; conditions: 6 h; 33 mg/kg
Sequence (P58681 27-1050): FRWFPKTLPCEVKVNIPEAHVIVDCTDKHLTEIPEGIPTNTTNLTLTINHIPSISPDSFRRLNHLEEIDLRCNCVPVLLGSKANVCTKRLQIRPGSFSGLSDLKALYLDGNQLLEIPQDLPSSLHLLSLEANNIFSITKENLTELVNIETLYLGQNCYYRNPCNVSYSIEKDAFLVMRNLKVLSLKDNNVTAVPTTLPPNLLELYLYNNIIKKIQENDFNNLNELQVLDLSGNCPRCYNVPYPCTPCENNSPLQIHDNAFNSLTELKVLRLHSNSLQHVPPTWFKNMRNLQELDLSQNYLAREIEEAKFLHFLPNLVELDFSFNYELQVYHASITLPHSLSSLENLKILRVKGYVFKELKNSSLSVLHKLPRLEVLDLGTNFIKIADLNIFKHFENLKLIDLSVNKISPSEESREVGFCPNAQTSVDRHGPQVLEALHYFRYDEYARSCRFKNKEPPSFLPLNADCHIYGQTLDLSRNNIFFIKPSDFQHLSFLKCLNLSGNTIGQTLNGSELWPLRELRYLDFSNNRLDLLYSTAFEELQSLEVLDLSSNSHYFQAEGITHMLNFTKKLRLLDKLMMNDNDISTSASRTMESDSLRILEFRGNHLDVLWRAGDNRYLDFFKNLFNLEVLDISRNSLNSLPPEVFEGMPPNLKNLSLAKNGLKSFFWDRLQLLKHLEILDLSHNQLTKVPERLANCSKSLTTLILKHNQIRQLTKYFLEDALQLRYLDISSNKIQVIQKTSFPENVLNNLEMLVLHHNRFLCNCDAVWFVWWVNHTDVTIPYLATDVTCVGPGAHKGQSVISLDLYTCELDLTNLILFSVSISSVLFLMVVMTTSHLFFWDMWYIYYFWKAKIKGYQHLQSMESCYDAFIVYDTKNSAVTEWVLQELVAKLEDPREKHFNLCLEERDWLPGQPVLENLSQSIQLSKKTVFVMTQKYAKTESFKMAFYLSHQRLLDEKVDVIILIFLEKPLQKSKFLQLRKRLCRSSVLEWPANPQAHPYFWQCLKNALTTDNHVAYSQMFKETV
We begin with a simple list: items and their reported % Suppression vs. Vehicle.
Supply the numeric figure in %, leaving out any unit text.

// lookup % Suppression vs. Vehicle | system=mouse TLR7 (Mus musculus, UniProt P58681) | key= CC1CN(c2ccc(C#N)c3ncccc23)CC(CN2CC(N3CCCC3)C2)O1 (stereo not drawn) [ER-889469]
100

// lookup % Suppression vs. Vehicle | system=mouse TLR7 (Mus musculus, UniProt P58681) | key= CC1CN(c2ccc(C#N)c3ncccc23)CC(CN2CCNC(C)C2C)O1 (stereo not drawn) [ER-887137]
99

// lookup % Suppression vs. Vehicle | system=mouse TLR7 (Mus musculus, UniProt P58681) | key= CC(=O)NC1CCN(CC2CN(c3ccc(C#N)c4ncccc34)CC(C)O2)CC1 (stereo not drawn) [ER-888288]
78

Further cases:
// lookup % Suppression vs. Vehicle | system=mouse TLR7 (Mus musculus, UniProt P58681) | key= C[C@@H]1CN(c2ccc(C#N)c3ncccc23)C[C@H](CN2CCC(C(N)=O)CC2)O1 [ER-888320]
78

// lookup % Suppression vs. Vehicle | system=mouse TLR7 (Mus musculus, UniProt P58681) | key= CC(C)N1CCN(C[C@H]2CN(c3ccc(C#N)c4ncccc34)C[C@@H](C)O2)CC1 [ER-888322]
99

// lookup % Suppression vs. Vehicle | system=mouse TLR7 (Mus musculus, UniProt P58681) | key= CC1CN(c2ccc(C#N)c3ncccc23)CC(CN2CCCC2CO)O1 (stereo not drawn) [ER-886814]
57

// lookup % Suppression vs. Vehicle | system=mouse TLR7 (Mus musculus, UniProt P58681) | key= CC1CN(c2ccc(C#N)c3ncccc23)CC(CN2CCC(N3CCOCC3)CC2)O1 (stereo not drawn) [ER-890093]
92

// lookup % Suppression vs. Vehicle | system=mouse TLR7 (Mus musculus, UniProt P58681) | key= CC1CN(c2ccc(C#N)c3ncccc23)CC(CN2CCC(N(C)C)CC2)O1 (stereo not drawn) [ER-887725]
99

// lookup % Suppression vs. Vehicle | system=mouse TLR7 (Mus musculus, UniProt P58681) | key= C[C@@H]1CN(c2ccc(C#N)c3ncccc23)C[C@H](CNC2CCCCC2)O1 [ER-886611]
90

====

Target: mouse TLR7 (Mus musculus)
Experiment: Short-term in vivo (STIV) assay: oral dosing, R848 s.c., plasma IL-6
Set-up: female BALB/c mice (Jackson Labs, Bar Harbor, Me.) were dosed by oral gavage; tissue Jackson Labs; host or cells: living female BALB/c mice; plasma IL-6 after s.c. R848
Details: 6 h; 100 mg/kg
Protocol: Figure Legend: Female BALB/c mice were dosed by oral gavage with Vehicle alone (0.5% aqueous methyl-cellulose) or compound formulated in Vehicle at 33 mg/kg, 100 mg/kg or 300 mg/kg. […] (FIG. 1A). Short-term in vivo (STIV) assay: To assess compound potency in vivo against mouse TLR7, a short-term in vivo (STIV) assay was utilized. […] The plasma IL-6 level following R848 stimulation was then measured by ELISA to assess compound potency and duration-of-action. […]
Measurement Type: % Suppression vs. Vehicle (%)
Supply the numeric figure in %, leaving out any unit text.

May I ask what % Suppression vs. Vehicle has been recorded for CC1CN(c2ccc(C#N)c3ncccc23)CC(C(=O)NC2CCCNCC2)O1 (stereo not shown) ?
71

May I ask what % Suppression vs. Vehicle has been recorded for C[C@@H]1CN(c2ccc(C#N)c3ncccc23)C[C@H](C(=O)N[C@H]2CNC[C@H]2F)O1.Cl ?
100

May I ask what % Suppression vs. Vehicle has been recorded for CC1CN(c2ccc(C#N)c3ncccc23)CC(C(=O)NC2CNCC2F)O1 (stereo not shown) ?
99

May I ask what % Suppression vs. Vehicle has been recorded for C[C@@H]1CN(c2ccc(C#N)c3ncccc23)C[C@H](CN2CCC(O)CC2)O1 ?
99

Measured values drawn from patent USRE47193E1 for this set.
